Data provenance is PubChem BioAssay (NCI).

Tested on: RPMI-8226 leukemia
Assay: NCI tumour cell line growth inhibition, 48 h
Kindly state GI50 for each of the entries shown.

Would you please look over these solved cases?
CCn1c(-c2nonc2N)nc2cnc(Oc3cccc(NC(=O)c4ccc(N(C)C)cc4)c3)cc21
> 25000 nM
CCc1ccc2c(c1)N(CCO)C1=C(C(=O)OC1)C2c1cc(OC)c(OC)c(OC)c1 (centres undefined)
201 nM
CSC1=Nc2c(c(C)c(-c3ccccc3)n2COC(CO)CO)C2=NC(=O)CC(C)N12 (centres undefined)
> 100000 nM

Assay RPMI-8226 leukemia, sample CS(=O)(=O)Nc1cc(-c2ccc3ncnc(Nc4cccc(Cl)c4)c3c2)cnc1Cl , GI50 read: 378 nM

----------
Tested on: LXFL 529 NSCLC
Assay: NCI tumour cell line growth inhibition, 48 h
Kindly state TGI for each of the entries shown.

Would you please look over these solved cases?
N#CCc1cccc(CC#N)c1Br
> 100 µM
Cc1ccc2ccc(-c3ccccc3)c3c2c1C(=O)c1ccccc1C3=O
> 100 µM
COc1ccc(Br)c(C(=O)N2CCc3ccccc32)c1N
> 100 µM

The value of TGI measured for the compound CCCCOC/N=C(/N)NC#N turned out to be > 100 µM

----------
Test system: OVCAR-4 ovarian
Assay: NCI tumour cell line growth inhibition, 48 h
Kindly state TGI for each of the entries shown.

Record TGI per entry; entries follow.
1. COc1cc([C@@H]2c3cc4c(cc3[C@@H](NCc3cccc(C#N)c3)C3COC(=O)[C@@H]32)OCO4)cc(OC)c1O (stereo not given in full)
2. Clc1ccc(CN2CCCN(Cc3ccc(Cl)cc3)C2c2cc3ccccc3c3ccccc23)cc1
3. CCOC1Oc2ccc(C)cc2C(=O)/C1=C\Nc1ccc(S(N)(=O)=O)cc1 (stereo not given)
4. CSc1nc(=O)cnn1C
5. O=c1c(Sc2c(SCSc3cnc4ccccc4c3Sc3c[nH]c4ccccc4c3=O)cnc3ccccc23)c[nH]c2ccccc12

1: > 100 µM; 2: > 100 µM; 3: > 50 µM; 4: > 100 µM; 5: > 100 µM

----------
Tested on: K-562 leukemia
Assay: NCI tumour cell line growth inhibition, 48 h
OBSERVABLE: TGI

Would you please look over these solved cases?
CN(C)CCN1CCc2c([nH]c3ccccc23)C1c1cccnc1 (stereo not drawn)
> 100 µM
O=c1cccc(Cl)[nH]1
> 100 µM

Now for a further compound.
Assay K-562 leukemia, sample Cc1ccc(-c2cc(-c3ccccc3)c(C#N)c(=O)[nH]2)cc1 , TGI read: > 100 µM

----------
Kindly state TGI for each of the entries shown.
Tested on: SW-620 colon
Assay: NCI tumour cell line growth inhibition, 48 h

O=C1Nc2ccc3c(c2/C1=C\c1cc2c(cc1Br)OCO2)OCO3
3.47 µM
O=[N+]([O-])c1ccc(N=Nc2c(O)[nH]c3ccccc23)c([N+](=O)[O-])c1
> 100 µM
O=C1Oc2ccccc2C(=O)/C1=C/N1C(=O)CNC1=S
> 100 µM
Cn1c(=O)c2c(nc(N/N=C/c3ccccc3C(=O)O)n2C)n(C)c1=O
> 100 µM

Now for a further compound.
The value of TGI measured for the compound O=C(Nc1ccccc1)Oc1ccc(C(=S)Nc2ccc(Br)cc2)cc1 turned out to be > 100 µM

----------
Kindly state TGI for each of the entries shown.
System: SK-MEL-2 melanoma
Assay: NCI tumour cell line growth inhibition, 48 h

Record TGI per entry; entries follow.
1. CCCCCCCCCCCCCCCCNC(=O)/C(=C\c1ccc(Cl)c(Cl)c1)NC(=O)c1ccccc1
2. Cc1ccc2nc(NS(=O)(=O)c3cc(C)c(Cl)cc3S)[nH]c2c1
3. COc1cc2cc(C(=O)N3CC(CCl)c4ccc([N+](C)(C)Cc5ccccc5[N+](=O)[O-])cc43)[nH]c2c(OC)c1OC (configuration not stated)
4. CC(C)(C)OC(=O)N1CCCC1C(=O)NC(c1ccccc1)c1ccccc1 (configuration not stated)
5. CC(O)[C@H](NC(=O)N[C@@H](CC(N)=O)c1nc(N2CCNCC2)no1)C(=O)O (some centres not stated)
6. COc1ccccc1C(=O)N(Cc1ccccc1)c1ccc(Cl)c(C(=O)OC(C)C)c1
7. Cc1nc2ccccc2c(=O)n1/N=C(\N=Nc1cc(Cl)ccc1Cl)c1ccccc1

["> 100 µM", "> 100 µM", "4.44 µM", "> 100 µM", "> 100 µM", "40.5 µM", "> 100 µM"]

----------
Kindly state log10 of TGI for each of the entries shown.
Test system: SN12C renal
Assay: NCI tumour cell line growth inhibition, 48 h
Give log10 of TGI, with TGI taken in µM.

CCCCCCCCCCCCCCCC[n+]1ccccc1
0.28

Record log10 of TGI per entry; entries follow.
1. N#C/C(=C(/O)CCl)c1nc2ccccc2o1
2. COc1cc2cc(C(=O)N3CC(CCl)c4ccc([N+](C)(C)Cc5ccccc5[N+](=O)[O-])cc43)[nH]c2c(OC)c1OC (stereo unspecified)
3. CCCCCCCCCCCCCCCCNC(=O)/C(=C\c1ccc(Cl)c(Cl)c1)NC(=O)c1ccccc1
4. NC(=O)/C(=C/n1cnc(-c2cc(C(F)(F)F)cc(C(F)(F)F)c2)n1)c1cncnc1
5. CCOC(=O)CCC(NC(=O)c1ccc(NC(OC)c2nc3cc(C(F)(F)F)ccc3nc2-c2ccccc2)cc1)C(=O)OCC (stereo unspecified)
6. Cc1cc(NN=C(c2ccc(O)cc2)c2ccc(O)cc2)c([N+](=O)[O-])cc1[N+](=O)[O-]

1. 0.97
2. 1.42
3. 1.91
4. 1.10
5. 1.45
6. 1.39

----------
System: SF-295 CNS
Test: NCI tumour cell line growth inhibition, 48 h
OBSERVABLE: TGI (µM)
One number for each entry, in µM.

CC1(C)C2CCC13C(=O)C1OC3(C2)C2C(=O)c3c(ccc4c3ccc3ccccc34)C(=O)C12 (stereo not given)
92.6

Now for a further compound.
Assay SF-295 CNS, sample O=CN1N=C(c2cccc(Nc3ccnc4cc(Cl)ccc34)c2)CC1c1ccc(Cl)cc1 (stereo not given) , TGI read: 8.12

----------
Kindly state TGI for each of the entries shown.
System: CCRF-CEM leukemia
Test: NCI tumour cell line growth inhibition, 48 h

Cc1cc(C)nc(NS(=O)(=O)c2ccc(Nc3c4ccccc4nc4c(C(=O)NCCN(C)C)cccc34)cc2)n1
22.6 µM
O=C(O)CSc1n[nH]c(-c2ccco2)n1
> 100 µM
COc1ccc(/C=C\c2cc(OC)c(OC)c(OC)c2)cc1
> 100 µM

Record TGI per entry; entries follow.
1. COc1ccc2c(c1)C(=O)c1c-2c(OCCN(C)C)nc2cc(OC)c(OC)cc12
2. CCOC(=O)c1c(CN2CCN(C)CC2)nc2ccc(Cl)cc2c1-c1ccccc1
3. Cc1sc2nc3n(c(=O)c2c1C)N=CN(c1ccc(Cl)cc1)C3
4. CCCCCCCCCCCCCCCC[n+]1ccccc1
5. CCCCCCCCC(O)c1ccc(/C=C\C(O)CCCC(=O)O)s1 (stereo not drawn)
6. CN(N=O)c1nc2c(C(N)=O)ncn2s1
7. O=C1NC(N/N=C\c2ccccc2)=N/C1=C/c1ccccc1
8. O=[N+]([O-])c1ccc(-c2nn3c(C45CC6CC(CC(C6)C4)C5)nnc3s2)c(Cl)c1

["3.91 µM", "28.9 µM", "> 100 µM", "1.33 µM", "> 100 µM", "> 100 µM", "> 100 µM", "> 100 µM"]

Record TGI per entry; entries follow.
1. CN1CCc2ccccc2C(C(=O)c2ccc3c(c2)OCO3)C1=O (stereo not drawn)
2. COc1cc2cc(C(=O)N3CC(CCl)c4ccc([N+](C)(C)Cc5ccccc5[N+](=O)[O-])cc43)[nH]c2c(OC)c1OC (stereo not drawn)
3. O=c1[nH][nH]c(=O)c2c1ccc1oc3ccccc3c12
4. O=[N+]([O-])/C(Cl)=C(/C(Cl)=C(Cl)Cl)N1CCOCC1

1: > 100 µM; 2: > 23.8 µM; 3: > 100 µM; 4: 7.23 µM

----------
Kindly state TGI for each of the entries shown.
Tested on: NCI-H460 lung
Assay: NCI tumour cell line growth inhibition, 48 h
Give bare numbers, in µM.

C#C[C@]1(O)CC[C@H]2[C@@H]3CC=C4c5nc(N)sc5CC[C@]4(C)[C@H]3CC[C@@]21C
16.4
C[C@@H]1CC[C@@H]2[C@@H](C1)O[C@@H]([C@@H](C)OCc1ccccc1)SC2(C)C
49.1
O=C1C(=O)C2(CC1S(=O)(=O)c1ccccc1)c1ccccc1-c1ccccc12 (configuration not stated)
36.2
COC(=O)/C=C\C(C#N)(C#N)N=Cc1ccc(OC)cc1
42.5
COc1cc(-c2nn(-c3cccc(NC(=O)CCN4CCN(c5ccccc5)CC4)c3)cc2-c2ccncc2)ccc1Cl
31.3
Cc1ccc2nc(NS(=O)(=O)c3cc(C)c(Cl)cc3S)[nH]c2c1
38.6
CCOC(=O)CCC(NC(=O)c1ccc(NC(OC)c2nc3cc(C(F)(F)F)ccc3nc2-c2ccccc2)cc1)C(=O)OCC (configuration not stated)
26.2

Now for a further molecule.
The value of TGI measured for the molecule COCC(C(=O)OC1C/C=C/C=C/C(=O)OC(C(C)C(O)C(C)CCC(OC(=O)C(C)N(C)C)C(C)C(OC(C)=O)C(C)/C=C/N(C)C=O)C/C=C/C(OC)CC(C)C/C=C(\C)C(OC)CCC(C)C(O)C1C)N(C)C (configuration not stated) turned out to be 0.00436
